src = paper PMC3021526

Target: T1, MUC1 15 aa peptide with cysteine (APDTRPAPGSTAPPA-C) (Homo sapiens (synthetic peptide))
T1 construct: 15 residues of the tandem repeat (VNTR) of human MUC1; added C-terminal cysteine, used for coupling to the chip; also called MUC1 peptide; MUC1 peptide antigen
T1 chain: APDTRPAPGSTAPPAC
Experiment: SPR; Biacore 2000; about 50 RU MUC1 15 aa peptide with cysteine coupled on a CM5 chip (NHS/EDC, PDEA); serial dilutions of scFv (0-400 nM) at 50 µL/min; 1:1 Langmuir separate fitting; IIB6 by steady-state model
Settings: both partners purified
Reported Kd values for a set of binders

For orientation, consider the following solved cases.
affinity matured anti-MUC1 scFv HT200-3A-C1 (scFv, V domains shown, one potential N-glycosylation site in CDR2; From IIB6 by nested error-prone PCR (library B), panning in solution; source: E. coli, IMAC purified; also culture supernatant from microtitre plates; not shown: c-myc, C-terminal, kept) VH: QMQLVQSGAEVKKPGASVKVSCKASGYTFTGHYMHWVRQAPGQGLEWMGWIDPVTGGTKYAQNFQGWVTMTRDTSIRTAYMELSRLRSDDTAMYYCAREVTGDRGQFDKWGQGTLVTVAS VL: QSVLTQPPSVSMAPGETARITCGGNNIGSKSVHWYQQKPGQAPVLVIYNDSDRPSGIPERFSGSNSGKTATLTISRVEAGDEADYYCQVWDSSIDWVFGGGTKLTVL ... 2.1 nM
affinity matured anti-MUC1 scFv HT186-B7 (scFv, V domains shown, From IIB6 by error-prone PCR (library A), off-rate panning; source: E. coli, IMAC purified; also culture supernatant from microtitre plates; not shown: c-myc, C-terminal, kept) VH: QMQLVQSGAEVKKPGASVKVSCKASGYTFTGHYMHWVRQAPGQGLEWMGWIDPVTGGTKYAQNFQGWVTMTRDTSIRTAYMELSRLRSDDTAMYYCAREVTGDRGQFDKWGQGTLVTVAS VL: QSVLTQPPSVSVAPGKTARITCGGNNIGSKSVHWYQQKPGQAPALVIYYGSYRPSGIPERFSGSNYGNTATLTIRRVEAGDEADYYCQVWDSSSDWVFGGGTKLTVL ... 1.3 nM
affinity matured anti-MUC1 scFv HT186-G2 (scFv, V domains shown, From IIB6 by error-prone PCR (library A), off-rate panning; source: E. coli, IMAC purified; also culture supernatant from microtitre plates; not shown: c-myc, C-terminal, kept) VH: RMQLVQSGAEVKKPGASVKLSCKASGYTFAGHYMHWVRQAPGRGLEWMGWIDPVTGGTKYAQNFQGWVTMTRDTSIRTAYMELSRLRSDDTAMYYCAREVTGDRGQFDKWGQGTLVTVAS VL: QSVLTQPPSVSVAPGKTARITCGGNNIGSKSVHWYQQKPGQAPVLVIYYGSDRSSGIPERFSGSNSGNTATLTISRVEAGDEADYYCQVWDSSSDWVFGGGTKLTVL ... ≤ 1 nM

The record that follows has no Kd shown yet.
Lookup: Suppose we examine the binder affinity matured anti-MUC1 scFv HT186-D11 (scFv, V domains shown, From IIB6 by error-prone PCR (library A), off-rate panning; source: E. coli, IMAC purified; also culture supernatant from microtitre plates; not shown: c-myc, C-terminal, kept) VH: QMQLVQSEAELKKPGASVKVSCKASGYSFTGHYMHWVRQAPGQGLEWMGWIDPVTGGTKYAQNFQGWVTMTRDTSIRTAYLELSRLRSDDTAMYYCAREVTGDRGQFDKWGQGTLVTVAS VL: QSVLTQPPSVSVAPGKTARITCGGNNIGSKSVHWYQQKPGQAPALVIYYGSNRPSGIPERFSGSNSGNTATLTISRVEAGDEADYYCQVWDSSSDWVFGGGTKLTVL ; what Kd value has been reported?
Found: 0.57 nM
